These data points were gathered from patent US12570650B2.

molecular target: SMARCA4 (Homo sapiens, UniProt P51532); construct: Determination of SMARCA2 and SMARCA4 Degradation in VCaP Cells by Western Blot; endogenous in cells; host or cells: VCaP (ATCC CRL-2876); experiment: SMARCA4 degradation in VCaP cells by Western blot; assay type: cell-based; conditions: 16 hours
Sequence (P51532 whole entry): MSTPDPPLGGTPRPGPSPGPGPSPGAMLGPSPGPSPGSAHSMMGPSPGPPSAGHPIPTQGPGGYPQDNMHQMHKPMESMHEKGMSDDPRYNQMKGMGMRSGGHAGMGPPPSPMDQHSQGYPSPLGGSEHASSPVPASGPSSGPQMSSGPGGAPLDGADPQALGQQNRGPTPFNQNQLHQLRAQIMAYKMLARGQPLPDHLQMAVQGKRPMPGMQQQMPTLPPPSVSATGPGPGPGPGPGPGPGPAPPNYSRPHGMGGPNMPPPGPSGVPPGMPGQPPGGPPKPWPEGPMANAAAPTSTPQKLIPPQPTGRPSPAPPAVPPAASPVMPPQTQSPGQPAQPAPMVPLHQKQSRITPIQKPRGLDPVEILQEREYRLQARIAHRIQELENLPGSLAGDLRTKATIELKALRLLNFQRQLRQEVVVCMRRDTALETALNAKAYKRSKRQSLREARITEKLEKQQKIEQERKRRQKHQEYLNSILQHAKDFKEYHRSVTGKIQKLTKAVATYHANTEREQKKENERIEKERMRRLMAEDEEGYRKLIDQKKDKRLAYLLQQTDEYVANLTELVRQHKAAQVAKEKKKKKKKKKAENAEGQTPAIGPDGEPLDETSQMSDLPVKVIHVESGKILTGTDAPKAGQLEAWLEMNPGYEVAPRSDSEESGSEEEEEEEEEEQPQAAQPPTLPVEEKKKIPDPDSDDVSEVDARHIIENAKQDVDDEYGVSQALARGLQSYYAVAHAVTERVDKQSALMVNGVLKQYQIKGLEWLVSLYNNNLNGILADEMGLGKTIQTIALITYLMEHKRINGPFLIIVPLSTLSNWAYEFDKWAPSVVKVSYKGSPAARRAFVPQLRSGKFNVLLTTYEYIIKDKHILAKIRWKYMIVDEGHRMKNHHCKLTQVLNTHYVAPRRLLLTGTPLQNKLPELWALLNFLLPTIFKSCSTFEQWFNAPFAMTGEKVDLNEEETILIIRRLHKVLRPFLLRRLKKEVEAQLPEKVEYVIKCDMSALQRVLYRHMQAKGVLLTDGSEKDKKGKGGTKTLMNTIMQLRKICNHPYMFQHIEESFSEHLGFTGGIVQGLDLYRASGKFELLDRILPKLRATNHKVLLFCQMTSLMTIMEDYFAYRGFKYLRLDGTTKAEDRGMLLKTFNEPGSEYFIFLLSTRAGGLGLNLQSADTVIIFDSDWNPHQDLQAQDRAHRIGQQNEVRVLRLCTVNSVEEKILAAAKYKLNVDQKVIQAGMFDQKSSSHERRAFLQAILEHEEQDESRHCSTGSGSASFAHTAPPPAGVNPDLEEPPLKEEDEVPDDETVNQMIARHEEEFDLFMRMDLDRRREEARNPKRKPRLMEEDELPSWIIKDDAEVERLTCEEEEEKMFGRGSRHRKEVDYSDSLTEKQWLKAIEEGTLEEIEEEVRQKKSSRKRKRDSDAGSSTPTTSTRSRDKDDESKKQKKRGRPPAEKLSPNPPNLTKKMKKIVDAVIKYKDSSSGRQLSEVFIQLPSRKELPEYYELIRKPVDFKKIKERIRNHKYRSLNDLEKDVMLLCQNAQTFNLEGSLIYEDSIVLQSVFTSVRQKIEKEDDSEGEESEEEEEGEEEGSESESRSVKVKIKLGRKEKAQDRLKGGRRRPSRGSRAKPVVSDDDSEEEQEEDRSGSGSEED
MEASURED PROPERTY: Percent degradation (at 100 nM) SMARCA4 (%)
Give the quantity in %, number only.

# COMPOUND, Percent degradation (at 100 nM) SMARCA4 [%]
rows = [
    ("Cc1ncsc1-c1ccc([C@H](C)NC(=O)[C@@H]2C[C@@H](O)CN2C(=O)[C@@H](NC(=O)C2CCN(c3ccc(-c4cnnc(-c5ccccc5O)c4)cc3)CC2)C(C)(C)C)cc1", 0),
    ("Cc1ncsc1-c1ccc([C@H](C)NC(=O)[C@@H]2C[C@@H](O)CN2C(=O)[C@@H](NC(=O)CN2CCC(c3ccc(-c4cnnc(-c5ccccc5O)c4)cc3)CC2)C(C)(C)C)cc1", 0),
    ("Cc1ncsc1-c1ccc([C@H](C)NC(=O)[C@@H]2C[C@@H](O)CN2C(=O)[C@@H](NC(=O)CN2CCN(c3ccc(-c4cnnc(Cl)c4)cc3)CC2)C(C)(C)C)cc1", 47),
    ("Cc1ncsc1-c1ccc([C@H](C)NC(=O)[C@@H]2C[C@@H](O)CN2C(=O)[C@@H](NC(=O)CN2CCN(c3ccc(-c4cnnc(-c5ccccc5O)c4)cc3F)CC2)C(C)(C)C)cc1", 0),
]

Lab note: next compound to report on.
So for Cc1ncsc1-c1ccc([C@H](C)NC(=O)[C@@H]2C[C@@H](O)CN2C(=O)[C@@H](NC(=O)CN2C3CCC2CC(c2ccc(-c4cnnc(-c5ccccc5O)c4)cc2)C3)C(C)(C)C)cc1 (stereo partly shown) , the logged Percent degradation (at 100 nM) SMARCA4 turned out to be 0

----------
target: SMARCA2 (Homo sapiens); construct: Determination of SMARCA2 and SMARCA4 Degradation in VCaP Cells by Western Blot; endogenous in cells; host or cells: VCaP (ATCC CRL-2876); test: SMARCA2 degradation in VCaP cells by Western blot; format: cell-based; settings: 16 hours
Sequence (P51531 whole entry): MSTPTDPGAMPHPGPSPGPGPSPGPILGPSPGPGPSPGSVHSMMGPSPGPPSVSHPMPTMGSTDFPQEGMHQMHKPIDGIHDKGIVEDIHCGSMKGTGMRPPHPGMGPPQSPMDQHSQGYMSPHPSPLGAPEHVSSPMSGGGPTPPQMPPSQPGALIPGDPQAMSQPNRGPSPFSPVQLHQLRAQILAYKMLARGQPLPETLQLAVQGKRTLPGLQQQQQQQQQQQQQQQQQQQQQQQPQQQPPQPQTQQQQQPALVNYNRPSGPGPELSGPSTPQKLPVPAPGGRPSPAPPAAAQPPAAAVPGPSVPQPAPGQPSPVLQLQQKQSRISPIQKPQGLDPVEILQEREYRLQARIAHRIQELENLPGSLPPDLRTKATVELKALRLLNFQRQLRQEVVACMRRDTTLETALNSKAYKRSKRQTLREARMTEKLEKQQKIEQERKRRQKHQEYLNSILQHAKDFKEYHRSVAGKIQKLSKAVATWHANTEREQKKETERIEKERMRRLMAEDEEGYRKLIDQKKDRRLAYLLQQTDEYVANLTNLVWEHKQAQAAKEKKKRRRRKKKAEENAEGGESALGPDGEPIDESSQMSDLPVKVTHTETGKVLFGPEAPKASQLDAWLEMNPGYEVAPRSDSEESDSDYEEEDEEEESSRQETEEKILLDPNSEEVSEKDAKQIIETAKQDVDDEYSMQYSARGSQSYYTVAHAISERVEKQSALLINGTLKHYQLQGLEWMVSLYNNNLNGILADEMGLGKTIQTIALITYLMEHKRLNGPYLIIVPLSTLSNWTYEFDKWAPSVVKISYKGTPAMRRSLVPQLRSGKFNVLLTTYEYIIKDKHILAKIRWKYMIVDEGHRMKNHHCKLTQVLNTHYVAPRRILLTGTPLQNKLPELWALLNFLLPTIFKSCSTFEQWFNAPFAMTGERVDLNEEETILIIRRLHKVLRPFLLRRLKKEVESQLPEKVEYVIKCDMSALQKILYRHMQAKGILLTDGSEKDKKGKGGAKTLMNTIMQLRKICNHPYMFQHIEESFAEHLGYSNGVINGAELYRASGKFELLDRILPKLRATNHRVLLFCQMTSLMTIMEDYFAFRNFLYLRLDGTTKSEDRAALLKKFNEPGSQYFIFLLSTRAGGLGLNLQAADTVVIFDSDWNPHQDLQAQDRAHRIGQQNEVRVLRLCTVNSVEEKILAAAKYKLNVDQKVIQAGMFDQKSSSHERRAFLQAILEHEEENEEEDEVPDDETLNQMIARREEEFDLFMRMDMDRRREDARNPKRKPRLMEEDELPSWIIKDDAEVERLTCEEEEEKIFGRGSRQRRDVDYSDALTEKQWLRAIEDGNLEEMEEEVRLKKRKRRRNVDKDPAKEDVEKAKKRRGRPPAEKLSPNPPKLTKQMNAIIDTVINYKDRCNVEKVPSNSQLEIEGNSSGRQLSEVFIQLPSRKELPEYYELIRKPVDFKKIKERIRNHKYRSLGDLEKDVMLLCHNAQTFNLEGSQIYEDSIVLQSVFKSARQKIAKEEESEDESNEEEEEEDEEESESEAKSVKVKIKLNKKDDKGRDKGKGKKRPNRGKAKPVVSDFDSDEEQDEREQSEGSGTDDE
MEASURED PROPERTY: Percent degradation (at 100 nM) SMARCA2 (%)
Give the quantity in %, number only.

Would you please look over these solved cases?
# MOLECULE, UNIT ABBREV, Percent degradation (at 100 nM) SMARCA2
records = [
    ("Cc1ncsc1-c1ccc([C@H](C)NC(=O)[C@@H]2C[C@@H](O)CN2C(=O)[C@@H](NC(=O)CN2CC3(CC(c4ccc(-c5cnnc(-c6ccccc6O)c5)cc4)C3)C2)C(C)(C)C)cc1 [Compound 31]", "%", 89),
    ("Cc1ncsc1-c1ccc([C@H](C)NC(=O)[C@@H]2C[C@@H](O)CN2C(=O)[C@@H](NC(=O)CC2CCN(c3ccc(-c4cnnc(-c5ccccc5O)c4)cc3)CC2)C(C)(C)C)cc1 [Compound 6]", "%", 97),
    ("Cc1ncsc1-c1ccc(C(CN(C)C)NC(=O)[C@@H]2C[C@@H](O)CN2C(=O)[C@@H](NC(=O)CN2CCN(c3ccc(-c4cnnc(-c5ccccc5O)c4)cc3)CC2)C(C)(C)C)cc1 (stereo partly shown) [Compound 49]", "%", 93),
    ("Cc1ncsc1-c1ccc([C@H](C)NC(=O)[C@@H]2C[C@@H](O)CN2C(=O)[C@@H](NC(=O)CN2CCN(c3ccc(-c4cnnc(-c5ccccc5O)c4)cc3)CC2)C(C)(C)C)cc1 [Compound 2]", "%", 94),
    ("Cc1ncsc1-c1ccc([C@H](C)NC(=O)[C@@H]2C[C@@H](O)CN2C(=O)[C@@H](NC(=O)CN2CCN(c3ccc(-c4cnnc(-c5cccc6cn[nH]c56)c4)cc3)CC2)C(C)(C)C)cc1 [Compound 41]", "%", 12),
    ("Cc1ncsc1-c1ccc([C@H](C)NC(=O)[C@@H]2C[C@@H](O)CN2C(=O)[C@@H](NC(=O)CN2CCN(c3ccc(-c4cnnc(-c5cnn(C)c5)c4)cc3)CC2)C(C)(C)C)cc1 [Compound 9]", "%", 0),
    ("Cc1ncsc1-c1ccc([C@H](C)NC(=O)[C@@H]2C[C@@H](O)CN2C(=O)[C@@H](NC(=O)CN2CC=C(c3ccc(-c4cnnc(-c5ccccc5O)c4)cc3)CC2)C(C)(C)C)cc1 [Compound 10]", "%", 83),
    ("Cc1ncsc1-c1ccc([C@H](C)NC(=O)[C@@H]2C[C@@H](O)CN2C(=O)[C@@H](NC(=O)CN2CCC(n3cc(-c4cnnc(-c5ccccc5O)c4)cn3)CC2)C(C)(C)C)cc1 [Compound 33]", "%", 69),
    ("Cc1ncsc1-c1ccc([C@H](C)NC(=O)[C@@H]2C[C@@H](O)CN2C(=O)[C@@H](NC(=O)CN2CCCC(c3ccc(-c4cnnc(-c5ccccc5O)c4)cc3)C2)C(C)(C)C)cc1 (stereo partly shown) [Compound 20]", "%", 41),
    ("Cc1ncsc1-c1ccc([C@H](C)NC(=O)[C@@H]2C[C@@H](O)CN2C(=O)[C@@H](NC(=O)CCCCOc2ccc(-c3cnnc(-c4ccccc4O)c3)cc2)C(C)(C)C)cc1 [Compound 34]", "%", 81),
]

So for Cc1ncsc1-c1ccc([C@H](C)NC(=O)[C@@H]2C[C@@H](O)CN2C(=O)C(c2cc(OCCN(C)c3ccc(-c4cnnc(-c5ccccc5O)c4)cc3)no2)C(C)C)cc1 (mixture of isomers) [Compound 44] , the logged Percent degradation (at 100 nM) SMARCA2 turned out to be 22

So for Cc1ncsc1-c1ccc([C@H](C)NC(=O)[C@@H]2C[C@@H](O)CN2C(=O)[C@@H](NC(=O)CN2CCC(c3ccc(-c4cnnc(-c5ccccc5O)c4)cc3F)CC2)C(C)(C)C)cc1 [Compound 15] , the logged Percent degradation (at 100 nM) SMARCA2 turned out to be 60

----------
biological target: SMARCA4 (Homo sapiens); construct: Determination of SMARCA2 and SMARCA4 Degradation in VCaP Cells by Western Blot; endogenous in cells; host or cells: VCaP (ATCC CRL-2876); experiment: SMARCA4 degradation in VCaP cells by Western blot; assay type: cell-based; conditions: 16 hours
MEASURED PROPERTY: Percent degradation (at 100 nM) SMARCA4 (%)
Give the quantity in %, number only.

Would you please look over these solved cases?
# MOLECULE, READOUT VALUE
records = [
    ("Cc1ncsc1-c1ccc([C@H](C)NC(=O)[C@@H]2C[C@@H](O)CN2C(=O)[C@@H](NC(=O)CN2CCC(O)(c3ccc(-c4cnnc(-c5ccccc5O)c4)cc3)CC2)C(C)(C)C)cc1 [Compound 32]", 0),
    ("Cc1ncsc1-c1ccc([C@H](C)NC(=O)[C@@H]2C[C@@H](O)CN2C(=O)[C@@H](NC(=O)CCN2CCN(c3ccc(-c4cnnc(-c5ccccc5O)c4)cc3)CC2)C(C)(C)C)cc1 [Compound 8]", 20),
]

So for Cc1ncsc1-c1ccc([C@H](C)NC(=O)[C@@H]2C[C@@H](O)CN2C(=O)[C@@H](NC(=O)CC2CCN(c3ccc(-c4cnnc(-c5ccccc5O)c4)cc3)CC2)C(C)(C)C)cc1 [Compound 6] , the logged Percent degradation (at 100 nM) SMARCA4 turned out to be 40

So for Cc1ncsc1-c1ccc([C@H](C)NC(=O)[C@@H]2C[C@@H](O)CN2C(=O)[C@@H](NC(=O)CN2CCCC(c3ccc(-c4cnnc(-c5ccccc5O)c4)cc3)C2)C(C)(C)C)cc1 (some centres unmarked) [Compound 20] , the logged Percent degradation (at 100 nM) SMARCA4 turned out to be 0

So for Cc1ncsc1-c1ccc([C@H](C)NC(=O)[C@@H]2C[C@@H](O)CN2C(=O)[C@@H](NC(=O)C(C)N2CCN(c3ccc(-c4cnnc(-c5ccccc5O)c4)cc3)CC2)C(C)(C)C)cc1 (single isomer, unassigned) [Compound 29] , the logged Percent degradation (at 100 nM) SMARCA4 turned out to be 0

----------
In this section we review reported Percent degradation (at 100 nM) SMARCA2 values for a set of molecules.
target: SMARCA2 (Homo sapiens); construct: Determination of SMARCA2 and SMARCA4 Degradation in VCaP Cells by Western Blot; endogenous in cells; host or cells: VCaP (ATCC CRL-2876); assay: SMARCA2 degradation in VCaP cells by Western blot; type: cell-based; details: 16 hours
State the result as a value with its unit after it.

# MOLECULE, READOUT VALUE
rows = [
    ("Cc1ncsc1-c1ccc([C@H](C)NC(=O)[C@@H]2C[C@@H](O)CN2C(=O)[C@@H](NC(=O)CCN2CCN(c3ccc(-c4cnnc(-c5ccccc5O)c4)cc3)CC2)C(C)(C)C)cc1 [Compound 8]", "84%"),
]

Record Cc1ncsc1-c1ccc([C@H](C)NC(=O)[C@@H]2C[C@@H](O)CN2C(=O)[C@@H](NC(=O)CN2CCC(c3cccc(-c4cnnc(-c5ccccc5O)c4)c3)CC2)C(C)(C)C)cc1 [Compound 23] / SMARCA2 (Homo sapiens), Percent degradation (at 100 nM) SMARCA2 recorded as 15%

Record Cc1ncsc1-c1ccc([C@H](C)NC(=O)[C@@H]2C[C@@H](O)CN2C(=O)[C@@H](NC(=O)CN2CCN(c3ccc(-c4cnnc(-c5ccccc5O)c4)cc3F)CC2)C(C)(C)C)cc1 [Compound 26] / SMARCA2 (Homo sapiens), Percent degradation (at 100 nM) SMARCA2 recorded as 89%

Record Cc1ncsc1-c1ccc([C@H](C)NC(=O)[C@@H]2C[C@@H](O)CN2C(=O)[C@@H](NC(=O)C(C)N2CCN(c3ccc(-c4cnnc(-c5ccccc5O)c4)cc3)CC2)C(C)(C)C)cc1 (stereo partly shown) [Compound 28] / SMARCA2 (Homo sapiens), Percent degradation (at 100 nM) SMARCA2 recorded as 38%

Record Cc1ncsc1-c1ccc(CNC(=O)[C@@H]2C[C@@H](O)CN2C(=O)[C@@H](NC(=O)CN2CCC(c3ccc(-c4cnnc(-c5ccccc5O)c4)cc3)CC2)C(C)(C)C)cc1 [Compound 12] / SMARCA2 (Homo sapiens), Percent degradation (at 100 nM) SMARCA2 recorded as 75%

Record Cc1ncsc1-c1ccc([C@H](C)NC(=O)[C@@H]2C[C@@H](O)CN2C(=O)[C@@H](NC(=O)CN2CCC(c3ccc(-c4cnnc(-c5cc(F)ccc5O)c4)cc3)CC2)C(C)(C)C)cc1 [Compound 13] / SMARCA2 (Homo sapiens), Percent degradation (at 100 nM) SMARCA2 recorded as 17%
